The measured values listed here are drawn from the supplement of paper PMC6992640.

test system: WHIM2 (cells of a triple-negative basal-like breast cancer xenograft); experiment: cell viability (% of vehicle); higher = less cytotoxic; settings: 10 µM; 72 h
Param label: returns TRUE when cell viability < 90, returns FALSE otherwise, including exact equality.

Reference set, count: 10
*Q* Consider Cc1ccc(C2OC(CO)C(O)C(O)C2O)cc1Cc1ccc(-c2ccc(F)cc2)s1 (configuration not stated) . Does its cell viability lie strictly below 90?
*A* TRUE

*Q* Please state whether cell viability is below 90 for CCC(=C(CC)c1ccc(O)cc1)c1ccc(O)cc1
*A* FALSE

*Q* Determine whether this compound shows cell viability lower than 90 (ties excluded): CN(C)C(=O)NC1CCC(CCN2CCN(c3cccc(Cl)c3Cl)CC2)CC1 (configuration not stated)
*A* FALSE

*Q* Lab log: compare recorded cell viability with 90; is it strictly lower for COc1ccccc1OCC(O)COC(N)=O (configuration not stated) ?
*A* FALSE

*Q* Please let me know if N#CC1CC2CC2N1C(=O)C(N)C12CC3CC(CC(O)(C3)C1)C2 (configuration not stated) shows cell viability below 90.
*A* FALSE

*Q* Does the reported cell viability of Cc1nnc(C(=O)NC(C)(C)c2nc(C(=O)NCc3ccc(F)cc3)c(O)c(=O)n2C)o1 stay below 90?
*A* FALSE

*Q* Criterion: cell viability strictly below 90. Is it met by CC[C@@]1(O)C(=O)OCc2c1cc1n(c2=O)Cc2cc3c(CN(C)C)c(O)ccc3nc2-1 ?
*A* TRUE

*Q* Does the reported cell viability of Cc1c(O)c(=O)ccn1C stay below 90?
*A* FALSE

*Q* For this compound, is cell viability lower than 90? O=C1CCCC(=O)C1C(=O)c1ccc(C(F)(F)F)cc1[N+](=O)[O-]
*A* TRUE

*Q* Record COc1cc2c(Nc3ccc(Br)cc3F)ncnc2cc1OCC1CCN(C)CC1 [Vandetanib (ZD6474)] : is its cell viability strictly below 90?
*A* TRUE

---
*Q* Is cell viability of CC(C)[N+]1(C)C2CCC1CC(OC(=O)C(CO)c1ccccc1)C2.[Br-] (configuration not stated) [Ipratropium Bromide] strictly below 90?
*A* FALSE

*Q* Please state whether cell viability is below 90 for O=N[O-].[Na+] [Sodium Nitrite]
*A* FALSE

*Q* Is the reported cell viability for CC(Nc1ncnc2nc[nH]c12)c1cc2cccc(Cl)c2c(=O)n1-c1ccccc1 (configuration not stated) strictly below 90?
*A* TRUE

*Q* Determine if [O-]n1ccccc1=S.[O-]n1ccccc1=S.[Zn+2] shows cell viability strictly lower than 90.
*A* TRUE

* * *

tested on: HCI01 (cells of a triple-negative basal-like breast cancer xenograft); assay: cell viability of combination (% of vehicle); higher = less cytotoxic; conditions: 1 µM; 72 h; partner dose: 10 nM
PROPERTY_LABEL: cell viability of combination

# count of solved cases: 3
Briefly, cell viability of combination measured for CCOC(=O)c1c(CSc2ccccc2)n(C)c2cc(Br)c(O)c(CN(C)C)c12.Cl [Arbidol HCl] + CN(C)C/C=C/C(=O)Nc1cc2c(Nc3ccc(F)c(Cl)c3)ncnc2cc1O[C@H]1CCOC1 [Afatinib] : 55.3

Value of cell viability of combination reported for the molecule CC1(C)CCC(c2ccc(Cl)cc2)=C(CN2CCN(c3ccc(C(=O)NS(=O)(=O)c4ccc(NC(CCN5CCOCC5)CSc5ccccc5)c(S(=O)(=O)C(F)(F)F)c4)cc3)CC2)C1 (centres undefined) [ABT-263 (Navitoclax)] + CN(C)C/C=C/C(=O)Nc1cc2c(Nc3ccc(F)c(Cl)c3)ncnc2cc1O[C@H]1CCOC1 [Afatinib] is 33

Sample Cc1cc(Nc2ncc(Cl)c(Nc3ccccc3S(=O)(=O)C(C)C)n2)c(OC(C)C)cc1C1CCNCC1 + CN(C)C/C=C/C(=O)Nc1cc2c(Nc3ccc(F)c(Cl)c3)ncnc2cc1O[C@H]1CCOC1 [Afatinib] ; cell viability of combination observed: 44.4

Please look at the following molecule next.
The molecule listed as O=C(NC1CCN(CCCCC2(C(=O)NCC(F)(F)F)c3ccccc3-c3ccccc32)CC1)c1ccccc1-c1ccc(C(F)(F)F)cc1 [Lomitapide] + CN(C)C/C=C/C(=O)Nc1cc2c(Nc3ccc(F)c(Cl)c3)ncnc2cc1O[C@H]1CCOC1 [Afatinib] shows cell viability of combination equal to 55

* * *

tested on: HCI16 (cells of a triple-negative basal-like breast cancer xenograft); assay: cell viability (% of vehicle); higher = less cytotoxic; details: 10 µM; 72 h
In this section we review reported cell viability values for a set of molecules.
Just the number, please.

Measured cell viability, O=C(O)Cc1cc(I)c(Oc2ccc(O)c(I)c2)c(I)c1 [Tiratricol] : 97.2

Consider CC12CCC(O)CC1=CCC1C2CCC2(C)C(n3cnc4ccccc43)=CCC12 (configuration not stated) . Its measured cell viability is 96.3

Memo: CCN(CC)CC#CCOC(=O)C(O)(c1ccccc1)C1CCCCC1 (configuration not stated) [Oxybutynin] , reported cell viability: 134

The measured cell viability associated with COC(=O)C1C2CC3c4[nH]c5cc(OC)ccc5c4CCN3CC2CC(OC(=O)c2cc(OC)c(OC)c(OC)c2)C1OC.Cl (configuration not stated) [Reserpine hydrochloride] reads 87.9

For reference, reported cell viability for CNC(=C[N+](=O)[O-])NCCSCc1csc(CN(C)C)n1 [Nizatidine] stands at 133

***
Lab note: measured cell viability of CN1CCN(c2ccc(C(=O)/N=c3\[nH][nH]c4ccc(Cc5cc(F)cc(F)c5)cc34)c(NC3CCOCC3)c2)CC1 [Entrectinib] was 58.5

Record Cc1cccc(-c2nn3c(c2-c2ccnc4ccc(C(N)=O)cc24)CCC3)n1 , field cell viability: 89.8

The molecule CC(=O)OC1CC2CCC3C(CCC4(C)C3CC([N+]3(C)CCCCC3)C4OC(C)=O)C2(C)CC1N1CCCCC1.[Br-] (configuration not stated) [Vecuronium Bromide] showed cell viability equal to 93.9

The molecule Cn1c(=O)c2[nH]cnc2n(C)c1=O [Theophylline] showed cell viability equal to 117

Reported cell viability of CC(NC(=O)Cc1cc(F)cc(F)c1)C(=O)NC(C(=O)OC(C)(C)C)c1ccccc1 (configuration not stated) : 130

cell viability for Nc1ccn(C2CSC(CO)O2)c(=O)n1 (configuration not stated) [Lamivudine] is 95.2

Query CCN(CC)C(=O)C(C#N)=Cc1cc(O)c(O)c([N+](=O)[O-])c1 [Entacapone] yields cell viability of 105

Lab book: cell viability of CC(=O)OC1(C(C)=O)CCC2C3C=C(C)C4=CC(=O)CCC4(C)C3CCC21C (configuration not stated) [Megestrol Acetate] noted as 102

Measured cell viability, OC(Cn1cncn1)(Cn1cncn1)c1ccc(F)cc1F [Fluconazole hydrate] : 101

Memo: CC(C)C(=O)Nc1ccc([N+](=O)[O-])c(C(F)(F)F)c1 [Flutamide] , reported cell viability: 78.4

Entry COc1cc(C(=O)NS(=O)(=O)c2ccccc2C)ccc1Cc1cn(C)c2ccc(NC(=O)OC3CCCC3)cc12 [Zafirlukast] ; cell viability = 106

Quick note, cell viability for CC(=O)Oc1ccccc1C(=O)O [Aspirin (Acetylsalicylic acid)] landed at 151

* * *

test system: HCI03 (cells of an ER-positive luminal breast cancer xenograft); assay: cell viability (% of vehicle); higher = less cytotoxic; details: 10 µM; 72 h
Rule: cell viability below 100 gives label 1, anything at or above gives label 0.

// known answers, use as guide
*Q* Lab log: compare recorded cell viability with 100; is it strictly lower for Nc1ccn(C2CSC(CO)O2)c(=O)n1 (stereo not drawn) ?
*A* label 0

*Q* Would you kindly verify if cell viability of C#CCNC1CCc2ccccc21.CS(=O)(=O)O (stereo not drawn) [Rasagiline Mesylate] is strictly less than 100?
*A* label 0

*Q* Please check: cell viability for Cn1c([N+](=O)[O-])cnc1COC(N)=O , strictly under 100 or not?
*A* label 0

*Q* Determine whether this compound shows cell viability lower than 100 (ties excluded): CC[C@H](C)[C@@H]1NC(=O)[C@H](Cc2ccc(O)cc2)NC(=O)[C@@H](N)CSSC[C@@H](C(=O)N2CCC[C@H]2C(=O)N[C@@H](CC(C)C)C(=O)NCC(N)=O)NC(=O)[C@H](CC(N)=O)NC(=O)[C@H](CCC(N)=O)NC1=O
*A* label 0

*Q* Is 100 strictly greater than the compound's reported cell viability? compound: CC(C)(C(=O)O)c1ccc(C(O)CCCN2CCC(C(O)(c3ccccc3)c3ccccc3)CC2)cc1.Cl (stereo not drawn) [Fexofenadine HCl]
*A* label 0

Others:
*Q* Does this compound meet the criterion cell viability < 100? CN1C(C(=O)Nc2ccccn2)=C(O)c2sccc2S1(=O)=O
*A* label 0

*Q* Please determine if CC(C)CC(NC(=O)C(NC(=O)c1cccc(-c2ccccc2)n1)C(C)O)B(O)O (stereo not drawn) is below 100 in terms of cell viability.
*A* label 1

* * *

system: WHIM30 (cells of a triple-negative basal-like breast cancer xenograft); assay: cell viability (% of vehicle); higher = less cytotoxic; settings: 10 µM; 72 h
Threshold-based label: cell viability under 100 gives YES, cell viability not under 100 gives NO.

*Q* State whether 100 exceeds cell viability recorded for CS(=O)(=O)c1ccc(C(=O)Nc2ccc(Cl)c(-c3ccccn3)c2)c(Cl)c1 .
*A* NO

---
*Q* Is cell viability strictly under 100 for the entry CC(O)C1C(=O)N2C(C(=O)OCOC(=O)C(C)(C)C)=C(SC3CN(C4=NCCS4)C3)C(C)C12 (configuration not stated) ?
*A* NO

*Q* Hello, I'm reviewing records and need to know if cell viability of CCc1oc2ccccc2c1C(=O)c1cc(Br)c(O)c(Br)c1 is below 100. Could you check?
*A* YES
